# System: U266 cells
# test description: Cell viability assay (CellTiter-Glo), U266 cells
# Type: cell-based, human
# protocol conditions: U-266; human U266 cells, 24 h
measured attribute: EC50 (nM)
// note: answer is a bare numeric in nM

query: Request body: readout EC50, system U266 cells, query O=C(Nc1cccc(C(F)(F)F)c1)OCCSc1ccc([N+](=O)[O-])c2nonc12 . Return the value.
result: 440

The measurements presented in this section are drawn from patent US20230365516A1.
